Reference source: ChEMBL document CHEMBL1201861

System: J82;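 also: growth inhibition of J82 cells, read out with a cell viability assay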
Test: cells
Format: functional, cell-based
Conditions: Homo sapiens
Description: SANGER: Inhibition of human J82 cell growth in a cell viability assay.
pIC50: −log10 of the molar value.
MEASURE: pIC50

Entry "O=S(=O)(O)c1ccc2cc(/N=N/c3cc(S(=O)(=O)O)c4cccnc4c3O)ccc2c1" ; assay system J82; pIC50 recorded at < 4.80

Entry "O=C1NC(=O)c2c1c(-c1ccccc1Cl)cc1[nH]c3ccc(O)cc3c21" ; assay system J82; pIC50 recorded at < 5.70

Entry "CC1=C(/C=C/C(C)=C/C=C/C(C)=C/C(=O)O)C(C)(C)CCC1" ; assay system J82; pIC50 recorded at < 5.00

Entry "CO[C@@H]1[C@H](N(C)C(=O)c2ccccc2)C[C@H]2O[C@]1(C)n1c3ccccc3c3c4c(c5c6ccccc6n2c5c31)C(=O)NC4" ; assay system J82; pIC50 recorded at < 6.29

Entry "NC(=O)c1ccc(N(C(N)=O)c2c(F)cccc2F)nc1-c1ccc(F)cc1F" ; assay system J82; pIC50 recorded at < 5.70

Entry "CC1(C)CCC(c2ccc(Cl)cc2)=C(CN2CCN(c3ccc(C(=O)NS(=O)(=O)c4ccc(N[C@H](CCN5CCOCC5)CSc5ccccc5)c(S(=O)(=O)C(F)(F)F)c4)cc3)CC2)C1" ; assay system J82; pIC50 recorded at < 5.70

###

System: SW13
Assay: cells
Assay type: functional, cell-based
Settings: Homo sapiens
Description: SANGER: Inhibition of human SW13 cell growth in a cell viability assay.
pIC50: −log10 of the molar value.
MEASURE: pIC50

Briefly, pIC50 measured for "OC[C@H](Cc1ccccc1)Nc1nc(Oc2ccc3c(c2)CCC3)nc2c1ncn2Cc1ccc(-c2ccccc2)cc1" : < 4.99

Briefly, pIC50 measured for "O=S(=O)(O)c1ccc2cc(/N=N/c3cc(S(=O)(=O)O)c4cccnc4c3O)ccc2c1" : < 4.80

Briefly, pIC50 measured for NC(=O)Nc1cc(-c2cccc(F)c2)sc1C(=O)N[C@H]1CCCNC1 [AZD-7762] : < 5.70

Briefly, pIC50 measured for "O=C1NC(=O)c2c1c(-c1ccccc1Cl)cc1[nH]c3ccc(O)cc3c21" : < 5.70

###

Tested on: KP-N-YS;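 also: cell viability assay measuring inhibition of cell line growth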
Assay: cells
Format: functional, cell-based, Homo sapiens
Details: kp-n-ys
Description: SANGER: Inhibition of human KP-N-YS cell growth in a cell viability assay.
Where a SMILES comes first, the peptide text is derived from it. The star is where a group is joined. Cbz = O=C(OCc1ccccc1)*
MEASURE: IC50

Briefly, IC50 measured for CC(C)C[C@@H](C=O)NC(=O)[C@H](CC(C)C)NC(=O)[C@H](CC(C)C)NC(=O)OCc1ccccc1 [MG-132] (Cbz-Leu-Leu-Leu-aldehyde) : > 1 µM

###

Record form. Attribute: IC50. Fill in for each entry.
System: BCPAP;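 also: growth inhibition of BCPAP cells, read out in a cell viability assay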
Assay: cells
Assay type: functional, cell-based
Conditions: Homo sapiens
Description: SANGER: Inhibition of human BCPAP cell growth in a cell viability assay.
Please give a number only; it is taken to be in µM.

Briefly, IC50 measured for "NC(=O)Nc1cc(-c2cccc(F)c2)sc1C(=O)N[C@H]1CCCNC1" : 1.89

Briefly, IC50 measured for "Cc1ccc(C(=O)Nc2ccc(CN3CCN(C)CC3)c(C(F)(F)F)c2)cc1C#Cc1cnc2cccnn12" : 0.36

Briefly, IC50 measured for "CCCCCCCCCCCC1=C(O)C(=O)C=C(O)C1=O" : 13.7

###

Tested on: Ramos-2G6-4C10;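 also: growth inhibition of the cell line, measured by a cell viability read-out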
Experiment: cells
Format: functional, cell-based, Homo sapiens
Settings: Homo sapiens, Ramos-2G6-4C10
Description: SANGER: Inhibition of human Ramos-2G6-4C10 cell growth in a cell viability assay.
Record form. Attribute: pIC50. Fill in for each entry.
API: returns pIC50 as number; meaning -log10 of concentration in mol/L.

Briefly, pIC50 measured for "Nc1ccccc1NC(=O)c1ccc(CNC(=O)OCc2cccnc2)cc1" : 6.36

Briefly, pIC50 measured for "NC(=O)Nc1cc(-c2cccc(F)c2)sc1C(=O)N[C@H]1CCCNC1" : 6.83

Briefly, pIC50 measured for "O=C1NC(=O)c2c1c(-c1ccccc1Cl)cc1[nH]c3ccc(O)cc3c21" : 6.21

Briefly, pIC50 measured for "C/C(=C\c1csc(C)n1)[C@@H]1C[C@@H]2O[C@]2(C)CCC[C@H](C)[C@H](O)[C@@H](C)C(=O)C(C)(C)[C@@H](O)CC(=O)O1" : 8.02

Briefly, pIC50 measured for "O=C(NCCCNc1nc(Nc2cccc(NC(=O)N3CCCC3)c2)ncc1I)c1cccs1" : 5.65
